Provenance of the data: ChEMBL document CHEMBL1156030

Test system: Human immunodeficiency virus
Test: Fold resistance, ratio of IC50 for HIV reverse transcriptase with Y181C mutant to IC50 for HIV wild type reverse transcriptase
Under this convention, YES denotes Ratio IC50 strictly below 2 and NO denotes Ratio IC50 at or above 2.

For orientation, consider the following solved cases.
1) O=C1Nc2ccc(Cl)cc2[C@@](C#CC2CC2)(C(F)(F)F)O1: NO
2) CCc1nn(CCO)c(CC)c1Sc1cc(Cl)cc(Cl)c1: YES
3) CCc1nn(CCO)c(CC)c1Oc1cc(Cl)cc(Cl)c1: NO

**Q:** Is Ratio IC50 of CCc1nn(CCO)c(CC)c1Cc1cc(Cl)cc(Cl)c1 strictly below 2?
**A:** YES

**Q:** Is Ratio IC50 of CCc1nn(CCO)c(CC)c1Oc1cccc(C#N)c1 strictly below 2?
**A:** YES

**Q:** Is Ratio IC50 of Cc1nn(CCO)c(C)c1Sc1cc(Cl)cc(Cl)c1 strictly below 2?
**A:** YES

###

Items are presented alongside their recorded Ratio IC50.
Test system: Human immunodeficiency virus
Assay: Fold resistance, ratio of IC50 for HIV reverse transcriptase with V106A mutant to IC50 for HIV wild type reverse transcriptase
Give the figure only, with no unit attached.

As a guide, the following entries are already answered.
1) CCc1nn(CCO)c(CC)c1Oc1cccc(C#N)c1: 15
2) O=C1Nc2ccc(Cl)cc2[C@@](C#CC2CC2)(C(F)(F)F)O1 [EFAVIRENZ]: 1.8
3) CCc1nn(CCO)c(CC)c1Cc1cc(Cl)cc(Cl)c1: 1.8
4) CCc1nn(CCO)c(CC)c1Sc1cc(Cl)cc(Cl)c1: 2.9

Now for another entry.
**Q:** Which measured Ratio IC50 value corresponds to CCc1nn(CCO)c(CC)c1Oc1cc(Cl)cc(Cl)c1 ?
**A:** 3.8

###

Tested on: Human immunodeficiency virus
Assay: Fold resistance, ratio of IC50 for HIV reverse transcriptase with F227L mutant to IC50 for HIV wild type reverse transcriptase
measured-attribute: Ratio IC50
Give the figure only, with no unit attached.

As a guide, the following entries are already answered.
1) CCc1nn(CCO)c(CC)c1Oc1cc(Cl)cc(Cl)c1: 7.1
2) CCc1nn(CCO)c(CC)c1Sc1cc(Cl)cc(Cl)c1: 13
3) CCc1nn(CCO)c(CC)c1Cc1cc(Cl)cc(Cl)c1: 9

**Q:** For Human immunodeficiency virus, provide Ratio IC50 of CCc1nn(CCO)c(CC)c1Oc1cccc(C#N)c1 please.
**A:** 4.7

**Q:** For Human immunodeficiency virus, provide Ratio IC50 of O=C1Nc2ccc(Cl)cc2[C@@](C#CC2CC2)(C(F)(F)F)O1 please.
**A:** 0.4

###

Assay: Inhibition of wild type HIV reverse transcriptase in presence of poly(rA) 300 template, (dT) 16 primer
Set-up: species or system Human immunodeficiency virus
Items are presented alongside their recorded log10 IC50.
# log10 transformed; quantity=IC50; unit=nM

1) CCc1nn(CCO)c(CC)c1Oc1cccc(C#N)c1: 2.54

**Q:** Which measured log10 IC50 value corresponds to CCc1nn(CCO)c(CC)c1Oc1cccc(Cl)c1 ?
**A:** 2.75

**Q:** Which measured log10 IC50 value corresponds to Cc1nn(CCO)c(C)c1Cc1cc(Cl)cc(Cl)c1 ?
**A:** 3.32

**Q:** Which measured log10 IC50 value corresponds to Cc1nn(CCO)c(C)c1Oc1cc(Cl)cc(Cl)c1 ?
**A:** 3.04

**Q:** Which measured log10 IC50 value corresponds to Cc1c(Cc2cc(Cl)cc(Cl)c2)c(C(C)C)nn1CCO ?
**A:** 3.28

**Q:** Which measured log10 IC50 value corresponds to CCc1nn(CCO)c(CC)c1Oc1cc(Cl)ccc1Cl ?
**A:** 3.08

**Q:** Which measured log10 IC50 value corresponds to CCc1nn(CCO)c(CC)c1Oc1c(Cl)cccc1Cl ?
**A:** 3.79
